Data origin, for the record: PubChem BioAssay AID1159580

assay: chemical genetic growth profiling, strain panel (AID 1159580);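 further: tested at 20 µM; growth read once vehicle control cultures reached saturation at 30 °C; 1 = growth at the plate median or of vehicle wells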; conditions: S. cerevisiae deletion strains, growth OD, locus YBR136W, strain MEC1, stronger effect = lower value
In all, about 5,500 compounds went through this assay and about 2,000 (36%) were called active. Roughly 18% stayed inconclusive and do not appear here. The list shows a part of the results.
Measured Metric: normalized growth

{"Molecule": "Cc1ccc(C(O)(c2ccccc2)c2ccccc2)c2ccccc12", "Measured Metric": "normalized growth", "Meas Value": "0.983 (inactive)"}
{"Molecule": "O=C(CSCc1nc(-c2ccc(Cl)cc2)cs1)N/N=C\\c1cccs1", "Measured Metric": "normalized growth", "Meas Value": "0.972 (inactive)"}
{"Molecule": "O=C1c2ccccc2O[C@@H](c2ccccc2)[C@@H]1NC1CCCCC1", "Measured Metric": "normalized growth", "Meas Value": "0.916 (inactive)"}
{"Molecule": "N#CCCCCOc1ccc2c(=O)cc(-c3ccccc3)oc2c1", "Measured Metric": "normalized growth", "Meas Value": "0.977 (inactive)"}
{"Molecule": "Fc1ccc(N/N=C\\Cc2nnnn2-c2ccccc2)c(F)c1", "Measured Metric": "normalized growth", "Meas Value": "0.952 (inactive)"}
{"Molecule": "N#CCC(=O)c1cccc(CSc2ccccc2Cl)c1", "Measured Metric": "normalized growth", "Meas Value": "0.967 (inactive)"}
{"Molecule": "CCC(C)COC(=O)/C=C/c1ccc(N=Cc2ccc(OC)cc2)cc1 (configuration not stated)", "Measured Metric": "normalized growth", "Meas Value": "0.969 (inactive)"}
{"Molecule": "O=C1c2ccccc2O[C@@H](c2ccccc2)[C@@H]1NCc1ccccc1", "Measured Metric": "normalized growth", "Meas Value": "0.921 (inactive)"}
{"Molecule": "CC(C)CSc1nnc(CSCc2nc(-c3ccc(Cl)cc3)cs2)n1C", "Measured Metric": "normalized growth", "Meas Value": "0.964 (inactive)"}
{"Molecule": "CC(O)(CNCc1ccc(Cl)cc1)CSc1ccccc1Cl (configuration not stated)", "Measured Metric": "normalized growth", "Meas Value": "0.975 (inactive)"}
{"Molecule": "Clc1ccccc1N/N=C\\Cc1nnnn1-c1ccccc1", "Measured Metric": "normalized growth", "Meas Value": "0.966 (inactive)"}
{"Molecule": "Clc1ccc(-c2csc(Nc3ccccc3)n2)s1", "Measured Metric": "normalized growth", "Meas Value": "0.923 (inactive)"}

###

assay: chemical genetic growth profiling, strain panel (AID 1159580);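 further: tested at 20 µM; growth read once vehicle control cultures reached saturation at 30 °C; 1 = growth at the plate median or of vehicle wells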; details: S. cerevisiae deletion strains, growth OD, locus YHR142W, strain chs7
Screen size: about 5,500 compounds; about 2,000 (36%) were called active. Another 18% or so got no clear call; they are omitted. No stated cut-off is given here; in the data, active means normalized growth mostly below about 0.91 (no sharp cut-off); inconclusive means no clear call, values can overlap the other calls; inactive means mostly above about 0.92. This is one part of the list.
Outcomes: active, inactive

{"Molecule": "CCCCCCCCCc1ccc(O)cc1", "Answer Label": "active"}
{"Molecule": "CCCCCCCCCCCCCCCC[n+]1ccccc1", "Answer Label": "active"}
{"Molecule": "COc1cc2cc[n+]3cc4c(OC)c(OC)ccc4cc3c2cc1OC", "Answer Label": "inactive"}
{"Molecule": "NCC(=O)CCC(=O)O", "Answer Label": "inactive"}
{"Molecule": "COc1ccc(-c2cc(=O)c3c(OC(C)=O)cc(OC(C)=O)cc3o2)cc1", "Answer Label": "inactive"}
{"Molecule": "COc1cc([C@@H]2c3cc4c(cc3[C@H](OC(C)=O)[C@H]3COC(=O)[C@H]23)OCO4)cc(OC)c1OC", "Answer Label": "inactive"}
{"Molecule": "COc1cc2c(cc1OC)-c1cc3ccc(OC)c(OC)c3c[n+]1CC2", "Answer Label": "inactive"}
{"Molecule": "CC(=O)CC(c1ccccc1)c1c(O)c2ccccc2oc1=O (stereo not drawn)", "Answer Label": "inactive"}
{"Molecule": "Cn1nnnc1SCC1=C(C(=O)O)N2C(=O)C(NC(=O)C(O)c3ccccc3)C2SC1 (stereo not drawn)", "Answer Label": "inactive"}
{"Molecule": "O=c1c(-c2cc(O)c(O)c(O)c2)coc2cc(O)c(O)c(O)c12", "Answer Label": "active"}
{"Molecule": "CC[N+]1(C)CCCC(OC(=O)C(O)(c2ccccc2)c2ccccc2)C1 (stereo not drawn)", "Answer Label": "inactive"}
{"Molecule": "N[C@@H]1CONC1=O", "Answer Label": "inactive"}
{"Molecule": "CCN(CC)CCNc1ccc(CO)c2sc3ccccc3c(=O)c12", "Answer Label": "inactive"}
{"Molecule": "CCCCCCc1ccc(O)cc1O", "Answer Label": "active"}
{"Molecule": "COC(=O)C1=C(C)NC(C)=C(C(=O)OC)C1c1ccccc1[N+](=O)[O-]", "Answer Label": "inactive"}
{"Molecule": "O=C(O)c1cn(-c2ccc(F)cc2)c2cc(N3CCNCC3)c(F)cc2c1=O", "Answer Label": "inactive"}
{"Molecule": "COc1ccc(-c2cc(=O)c3c(O)c(OC)c(OC)c(OC)c3o2)cc1", "Answer Label": "inactive"}
{"Molecule": "COC(=O)C1=C(C)NC(C)=C(C(=O)OCC(C)C)C1c1ccccc1[N+](=O)[O-] (stereo not drawn)", "Answer Label": "active"}
{"Molecule": "CC(=O)Oc1ccc(-c2cc(=O)c3c(OC(C)=O)cc(OC(C)=O)cc3o2)cc1", "Answer Label": "inactive"}
{"Molecule": "CC(=O)Nc1ccc(O)cc1", "Answer Label": "inactive"}
{"Molecule": "COc1cccc2c1cc([N+](=O)[O-])c1c(C(=O)O)cc3c(c12)OCO3", "Answer Label": "inactive"}
{"Molecule": "CC(C)c1ccc2c(c1O)CC[C@H]1C3=C(CC[C@]21C)C(=O)OC3", "Answer Label": "active"}
{"Molecule": "CC[C@]12C=CCN3CC[C@@]4(c5ccc(OC)cc5N(C)C4[C@@](O)(C(=O)OC)[C@@H]1OC(C)=O)[C@@H]32 (stereo partly drawn)", "Answer Label": "inactive"}
{"Molecule": "C/C(=C\\C(=O)OCCCCCCCCC(=O)O)C[C@@H]1OC[C@H](C[C@@H]2O[C@H]2[C@@H](C)[C@H](C)O)[C@@H](O)[C@H]1O", "Answer Label": "inactive"}
{"Molecule": "COc1ccc(-c2cc(=O)c3cc(OC)ccc3o2)cc1", "Answer Label": "active"}
{"Molecule": "COC(=O)C1=C(C)NC(C)=C(C(=O)OCCN(C)Cc2ccccc2)C1c1cccc([N+](=O)[O-])c1 (stereo not drawn)", "Answer Label": "inactive"}
{"Molecule": "NC(=O)CC[C@@H](N)C(=O)O", "Answer Label": "inactive"}
{"Molecule": "CN(C)CCC=C1c2ccccc2CCc2ccccc21", "Answer Label": "inactive"}
{"Molecule": "O=c1c2ccccc2[se]n1-c1ccccc1", "Answer Label": "active"}
{"Molecule": "CN(N=O)C(=O)N[C@@H]1[C@@H](O)[C@H](O)[C@@H](CO)O[C@@H]1O", "Answer Label": "inactive"}
{"Molecule": "O=c1oc2ccccc2c(O)c1Cc1c(O)c2ccccc2oc1=O", "Answer Label": "inactive"}
{"Molecule": "CN(C)C(=O)Oc1cc(OC(=O)N(C)C)cc(C(O)CNC(C)(C)C)c1 (stereo not drawn)", "Answer Label": "inactive"}
{"Molecule": "O=c1c2ccccc2oc2ccccc12", "Answer Label": "active"}
